assay_target: human Androgen Receptor (AR) (Homo sapiens, UniProt P10275)
Construct: transiently transfected in T225 cm^2 flasks with a full length human Androgen Receptor (AR) cDNA; expressed in transfected cells; host or cells: CV-1 cells (ATCC CCL-70), transiently transfected
Sequence (P10275 1-920): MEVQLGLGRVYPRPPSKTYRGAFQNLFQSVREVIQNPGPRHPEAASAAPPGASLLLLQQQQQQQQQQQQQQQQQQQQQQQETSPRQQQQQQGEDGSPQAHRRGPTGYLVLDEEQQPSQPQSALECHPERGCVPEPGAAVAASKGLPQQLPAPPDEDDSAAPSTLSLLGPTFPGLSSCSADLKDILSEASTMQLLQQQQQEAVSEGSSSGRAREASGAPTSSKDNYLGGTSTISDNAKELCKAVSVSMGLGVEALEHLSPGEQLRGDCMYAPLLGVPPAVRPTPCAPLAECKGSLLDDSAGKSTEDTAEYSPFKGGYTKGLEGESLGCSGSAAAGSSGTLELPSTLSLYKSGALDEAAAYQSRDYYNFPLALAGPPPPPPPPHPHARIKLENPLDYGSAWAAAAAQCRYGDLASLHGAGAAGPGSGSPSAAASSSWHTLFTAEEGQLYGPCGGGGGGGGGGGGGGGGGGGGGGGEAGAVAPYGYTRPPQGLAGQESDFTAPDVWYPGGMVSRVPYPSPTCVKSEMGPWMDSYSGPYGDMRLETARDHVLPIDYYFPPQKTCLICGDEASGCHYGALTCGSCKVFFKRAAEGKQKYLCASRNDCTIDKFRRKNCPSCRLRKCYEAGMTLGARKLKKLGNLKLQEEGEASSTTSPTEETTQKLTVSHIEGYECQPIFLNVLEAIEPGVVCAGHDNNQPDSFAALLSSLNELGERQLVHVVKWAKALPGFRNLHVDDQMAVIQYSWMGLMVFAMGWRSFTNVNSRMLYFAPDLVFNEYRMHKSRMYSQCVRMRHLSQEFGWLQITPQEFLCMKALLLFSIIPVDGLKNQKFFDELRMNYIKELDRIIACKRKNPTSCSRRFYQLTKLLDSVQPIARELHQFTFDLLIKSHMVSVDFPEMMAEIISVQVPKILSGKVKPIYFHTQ
test_protocol: Androgen Receptor-Mediated Transcriptional Assay
Assay type: cell-based
experimental_setup: CV-1 cells transiently transfected with full length human AR and ARE-luciferase; 16-18 hours incubation; Compounds 1-22
metric_name: pEC50
Bear in mind: pEC50 is minus log10 of a mol/L concentration; give just that figure.

Recorded pEC50 (compound C[C@H]1CN(C)S(=O)(=O)N1c1ccc2c(C#N)nccc2c1 ): 8.30
